// provenance: patent US20130096116A1

Assay: pH solubility profile of GDC-0941 (shake flask method)
Type: physicochemical
Conditions: 50 mM USP buffer, aqueous buffer, thermodynamic from solid; pH 7.5; 48 hours at 37° C.; read-out: solubility
readout: solubility at 48 h

{"chemical-smiles": "CS(=O)(=O)N1CCN(Cc2cc3nc(-c4cccc5[nH]ncc45)nc(N4CCOCC4)c3s2)CC1", "readout": "solubility at 48 h", "reading": "< 1 µg/mL"}

###

Assay: pH solubility profile of GDC-0941 (shake flask method)
Assay type: physicochemical
Conditions: 50 mM USP buffer, aqueous buffer, thermodynamic from solid; all tested pH values above pH 4.4; 48 hours at 37° C.; read-out: measured solubility

{"chemical-smiles": "CS(=O)(=O)N1CCN(Cc2cc3nc(-c4cccc5[nH]ncc45)nc(N4CCOCC4)c3s2)CC1", "solubility at 48 h": "~1 µg/mL"}
